# hERG IC20/TLR8 IC50 per record follows
# Tgt: hERG channel (Homo sapiens, UniProt Q12809)
# Construct: expressed in transfected cells; host or cells: CHO (Chinese hamster ovary), CHOhERG
# Sequence (Q12809 whole entry): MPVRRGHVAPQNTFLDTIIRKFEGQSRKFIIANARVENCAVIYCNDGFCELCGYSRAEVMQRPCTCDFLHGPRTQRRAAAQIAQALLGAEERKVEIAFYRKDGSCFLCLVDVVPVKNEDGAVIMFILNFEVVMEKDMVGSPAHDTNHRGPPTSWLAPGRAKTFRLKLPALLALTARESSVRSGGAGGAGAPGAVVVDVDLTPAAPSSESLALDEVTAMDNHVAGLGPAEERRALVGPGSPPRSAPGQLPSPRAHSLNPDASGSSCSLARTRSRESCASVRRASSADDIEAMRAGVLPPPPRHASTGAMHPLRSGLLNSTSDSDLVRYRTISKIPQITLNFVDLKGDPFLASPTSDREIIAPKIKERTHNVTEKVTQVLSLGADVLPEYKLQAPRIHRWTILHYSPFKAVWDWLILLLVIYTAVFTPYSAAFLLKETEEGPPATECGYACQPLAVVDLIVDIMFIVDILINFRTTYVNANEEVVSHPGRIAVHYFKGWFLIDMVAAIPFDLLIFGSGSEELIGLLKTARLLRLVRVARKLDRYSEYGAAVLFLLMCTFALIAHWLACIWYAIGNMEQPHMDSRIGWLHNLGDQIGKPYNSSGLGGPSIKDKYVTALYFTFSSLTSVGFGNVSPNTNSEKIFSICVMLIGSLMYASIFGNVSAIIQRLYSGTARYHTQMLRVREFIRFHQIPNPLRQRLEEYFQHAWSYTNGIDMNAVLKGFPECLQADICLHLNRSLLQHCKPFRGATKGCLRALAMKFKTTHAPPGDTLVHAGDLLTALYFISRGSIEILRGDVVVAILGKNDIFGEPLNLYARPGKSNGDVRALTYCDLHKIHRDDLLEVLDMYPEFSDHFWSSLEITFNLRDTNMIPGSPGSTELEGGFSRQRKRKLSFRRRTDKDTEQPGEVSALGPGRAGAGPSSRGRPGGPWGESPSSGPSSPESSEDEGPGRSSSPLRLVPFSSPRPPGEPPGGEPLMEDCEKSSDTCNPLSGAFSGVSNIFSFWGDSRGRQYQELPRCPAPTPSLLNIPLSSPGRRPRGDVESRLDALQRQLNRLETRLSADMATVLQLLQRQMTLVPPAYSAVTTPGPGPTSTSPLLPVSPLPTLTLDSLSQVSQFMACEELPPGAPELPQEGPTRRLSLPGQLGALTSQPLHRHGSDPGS
# Method description: hERG channel inhibition assay (patch-clamp, CHOhERG cells)
# Assay type: cell-based
# Details: safety ratio
# Procedure: hERG Channel Inhibition Assay: The hERG K^+ channels were cloned in humans and stably expressed in a CHO (Chinese hamster ovary) cell line. CHOhERG cells were used for patch-clamp (voltage-clamp, whole-cell) experiments. […] After the cells were stabilized for a few minutes, the amplitude and kinetics of IKhERG were recorded at a stimulation frequency of 0.1 Hz (6 bpm). […]
Measured attribute: hERG IC20/TLR8 IC50

INSERT INTO assay_data (compound, tgt, limit_operator, reported_value) VALUES
  ('[2H]c1ccc2c(N3C[C@@H]4CN(c5ccc([C@@H]6CNCCO6)cc5)CCN4[C@@H](C)C3)ccc(C#N)c2n1 [Example 106]', 'hERG channel (Homo sapiens, UniProt Q12809)', '>', 2500),
  ('[2H]c1ccc2c(N3C[C@@H]4CN(c5ccc6c(n5)CCNC6)CCN4[C@@H](C)C3)ccc(C#N)c2n1 [Example 121]', 'hERG channel (Homo sapiens, UniProt Q12809)', '>', 10000),
  ('CO[C@@H]1CN(c2nc(C)cc(N3CCN4[C@@H](C3)CN(c3ccc(C#N)c5ncccc35)C[C@H]4C)n2)C[C@H]1N [Example 45]', 'hERG channel (Homo sapiens, UniProt Q12809)', '>', 357),
  ('C[C@@H]1CN(c2ccc(C#N)c3ncccc23)C[C@@H]2CN(c3cccc4c3CNC4)CCN21 [Example 9]', 'hERG channel (Homo sapiens, UniProt Q12809)', '=', 5170),
  ('[2H]c1ccc2c(N3C[C@@H]4CN(c5ncc(N6CC(C)(N)C6)cc5C)CCN4[C@@H](C)C3)ccc(C#N)c2n1 [Example 118]', 'hERG channel (Homo sapiens, UniProt Q12809)', '=', 1276),
  ('C[C@@H]1CN(c2ccc(C#N)c3ncccc23)C[C@@H]2CN(Cc3ccc(N4CCNCC4)nc3)CCN21 [Example 8]', 'hERG channel (Homo sapiens, UniProt Q12809)', '=', 166),
  ('C[C@@H]1CN(c2ccc(C#N)c3ncccc23)C[C@@H]2CN(c3ccnc(N4CC(N)C4)c3)CCN21 [Example 41]', 'hERG channel (Homo sapiens, UniProt Q12809)', '=', 1377);
